molecular target: Ras-related protein Rab-2A (Canis lupus familiaris) (UniProt P61105); assay: Rab2 wt fluorescent GTP binding changes, either direction – biochemical, dog, bead-based flow cytometry, multiplex, primary screen (AID 760); settings: GST-Rab2 wt beads, Bodipy-GTP binding, at 10 µM;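 also: 0% = beads with excess unlabeled GTP and 100% = no-compound control corrected for plate trend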
Screen size: about 190,000 compounds; about 360 (0.19%) were called active. Another 2% or so got no clear call; they are omitted. The entries come from a sample that favours actives as a whole.
// reported GTP binding activity per item
// note: answer is a bare numeric in %

| Compound | Unit Of Measure | Value |
| --- | --- | --- |
| COC(=O)c1cc2n(n1)CCCNC2=O | % | 100 |
| C=CCN(CC=C)S(=O)(=O)c1ccc(C(=O)Nc2nc3c(s2)CCc2ccccc2-3)cc1 | % | 39 |
| Cc1ccnc2nc(C(=O)OCC(=O)N(CC(C)C)CC(C)C)nn12 | % | 97 |
| O=C(CCC(=O)N1CCCC1)Nc1ccc([N+](=O)[O-])cc1 | % | 101 |
| C/C(=N\NC(=O)OC(C)(C)C)c1ccc[nH]1 | % | 98 |

Next compound, please.
Noted for O=C(O)/C=C/c1cn(-c2ccccc2)nc1-c1cccs1 : its GTP binding activity reads 93

====

biological target: Ras-related protein Rab-2A (Canis lupus familiaris) (UniProt P61105); assay: Rab2 wt fluorescent GTP binding changes, either direction – biochemical, dog, bead-based flow cytometry, multiplex, primary screen (AID 760); settings: GST-Rab2 wt beads, Bodipy-GTP binding, at 10 µM;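 also: 0% = beads with excess unlabeled GTP and 100% = no-compound control corrected for plate trend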
Hit rate of the full screen: of about 190,000 compounds, about 360 (0.19%) were called active. About 2% were inconclusive and are not listed.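 The calls were made as follows: active = GTP binding activity at least 20 points away from 100%, either lowered or raised; inconclusive = signal likely due to the compound's own green fluorescence; inactive = the rest.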 The sample holds actives, similar compounds and a random draw of the others, so the mix is not that of the screen.
Response enum: 1 (yes) = active, 0 (no) = inactive

For orientation, consider the following solved cases.
| Compound Structure String | Cat |
| --- | --- |
| CCOC(=O)c1nc(Nc2ccc(C(=O)OC)cc2)c2ccccc2n1 | 1 (yes) |
| CCc1nnc(NC(=O)CSc2nnnn2-c2cccc(C(C)=O)c2)s1 | 0 (no) |
| Cc1cc(C)n(-c2nc(C(F)(F)F)nc3ccccc23)n1 | 0 (no) |

Then this molecule:
// param item: COC(=O)c1sc2[nH]c(=S)n(N)c(=O)c2c1C ; yields the recorded call
0 (no)

====

molecular target: Ras-related protein Rab-2A (Canis lupus familiaris) (UniProt P61105); experiment: Rab2 wt fluorescent GTP binding changes, either direction – biochemical, dog, bead-based flow cytometry, multiplex, primary screen (AID 760); settings: GST-Rab2 wt beads, Bodipy-GTP binding, at 10 µM;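 also: 0% = beads with excess unlabeled GTP and 100% = no-compound control corrected for plate trend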
About 360 (0.19%) of roughly 190,000 compounds were called active. Another 2% or so got no clear call; they are omitted.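 Rule for the calls: active = GTP binding activity at least 20 points away from 100%, either lowered or raised; inconclusive = signal likely due to the compound's own green fluorescence; inactive = the rest.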 For the sample, actives were picked, then their nearest neighbours and some compounds at random.
Outcomes you can answer with include only these: y = active, n = inactive

Some solved entries appear below for comparison.
| Molecule | Cat |
| --- | --- |
| Cc1ccc(NC(=O)c2ccccn2)cc1S(=O)(=O)N1CCOCC1 | n |
| CC(C)=CCN1CCN(Cc2ccc(Oc3ncccn3)cc2)CC1CCO (centres undefined) | n |
| CN(C)CCCn1c(SCCN2C(=O)c3ccccc3C2=O)nc2ccccc2c1=O | n |
| Cc1cc(C2=NNC(=Nc3ccc(S(=O)(=O)N4CCOCC4)cc3)SC2)c(C)n1CC1CCCO1 (centres undefined) | n |
| O=C1c2cccc3c([N+](=O)[O-])ccc(c23)C(=O)N1CC1CCCO1 (centres undefined) | n |

Which outcome did this test record for the molecule COc1ccc(OC)c(-c2csc(NC(=O)C3=NNC(=O)CC3)n2)c1 ?
n

So what was the verdict on COc1cc(/C=N/Nc2ccc(C)cc2)cc(Br)c1O in this test?
n

Recorded call for COc1cc(CN(C)Cc2nc3cc(C(F)(F)F)ccc3c(=O)[nH]2)ccc1OC(F)F ?
n

Could you check what this test reported for COc1ccc(CCNC(=O)CCn2c(=O)c3ccccc3n(CC(=O)NCC3CCCO3)c2=O)cc1OC (centres undefined) ?
n
